Recorded values, source ChEMBL document CHEMBL1629580.

Reported MIC values are given for each entry in this list.
- Test system: Escherichia coli
- experimental-details: Antimicrobial activity against Escherichia coli MC4100A harboring empty plasmid by liquid microdilution method
- Assay type: functional

# compound, tested-target, operator-symbol, MIC (µg/mL)
measured = [
    ("CC(C)(O/N=C(\\C(=O)N[C@@H]1C(=O)N2C(C(=O)[O-])=C(C[n+]3ccccc3)CS[C@H]12)c1csc(N)n1)C(=O)O [CEFTAZIDIME]", "Escherichia coli", "≤", 0.06),
    ("CCN1CCN(C(=O)N[C@@H](C(=O)N[C@@H]2C(=O)N3[C@@H]2SC(C)(C)[C@@H]3C(=O)O)c2ccccc2)C(=O)C1=O [PIPERACILLIN]", "Escherichia coli", "=", 2),
    ("CC(=O)OCC1=C(C(=O)O)N2C(=O)[C@@H](NC(=O)Cc3cccs3)[C@H]2SC1 [CEPHALOTHIN]", "Escherichia coli", "=", 4),
    ("CC1(C)S[C@@H]2[C@H](NC(=O)[C@H](N)c3ccc(O)cc3)C(=O)N2[C@H]1C(=O)O [AMOXICILLIN]", "Escherichia coli", "=", 4),
]
